TARGET ENTITY: 5-HT6 receptor (Homo sapiens)
PROTOCOL DETAILS: Radioligand binding, 5-HT6 ([3H]-LSD displacement)
CONDITIONS USED: read-out: Ki 5-HT6; cloned human receptor in HEK293; three independent experiments, SEM ± 22%
QUANTITY MEASURED: Ki (nM)
Numbers only, in nM.

The examples below pair each entry with its known result.
- RECORD SMILES: "CC(C)c1ccc(S(=O)(=O)n2ccc3c(N4CCNCC4)nc4ccccc4c32)cc1"
  MEASURED VALUE: 14
- RECORD SMILES: "O=S(=O)(c1ccc(C(F)(F)F)cc1)n1ccc2c(N3CCNCC3)nc3ccccc3c21"
  MEASURED VALUE: 34

Next item in the queue.
Data point: "O=S(=O)(c1ccc(F)cc1)n1ccc2c(N3CCNCC3)nc3ccccc3c21" ; Ki = 18

---

TARGET ENTITY: 5-HT6 receptor (Homo sapiens, UniProt P50406)
Sequence (P50406 whole entry): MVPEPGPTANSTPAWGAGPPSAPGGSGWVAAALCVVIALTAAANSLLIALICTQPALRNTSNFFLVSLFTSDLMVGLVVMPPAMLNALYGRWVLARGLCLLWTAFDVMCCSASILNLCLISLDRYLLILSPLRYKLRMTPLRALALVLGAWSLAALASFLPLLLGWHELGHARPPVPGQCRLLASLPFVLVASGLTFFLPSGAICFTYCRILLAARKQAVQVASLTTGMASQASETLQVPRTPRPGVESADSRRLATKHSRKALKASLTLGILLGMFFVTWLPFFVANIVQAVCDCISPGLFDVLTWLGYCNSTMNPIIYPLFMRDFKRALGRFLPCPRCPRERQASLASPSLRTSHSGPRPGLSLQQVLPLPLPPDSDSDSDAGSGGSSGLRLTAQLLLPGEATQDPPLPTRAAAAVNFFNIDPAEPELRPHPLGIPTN
PROTOCOL DETAILS: CHO-human-5HT6-Aequorin functional assay (ago-/antagonism)
CONDITIONS USED: antagonist effect vs 10^-6 M α-methylserotonin induced luminescence; test concentration not given
Task for the reader: assign each of the following compounds its reported % inhibition of control antagonist response.

- COMPOUND: "O=S(=O)(c1cccc(Cl)c1)n1ccc2c(N3CCOCC3)nc3ccccc3c21"
  TARGET ENTITY: "5-HT6 receptor (Homo sapiens, UniProt P50406)"
  MEASURED VALUE: "23.8%"
- COMPOUND: "O=S(=O)(c1cccc(Cl)c1)n1ccc2c(N3CCCCC3)nc3ccccc3c21"
  TARGET ENTITY: "5-HT6 receptor (Homo sapiens, UniProt P50406)"
  MEASURED VALUE: "11.6%"
- COMPOUND: "N#Cc1cccc(S(=O)(=O)n2ccc3c(N4CCNCC4)nc4ccccc4c32)c1"
  TARGET ENTITY: "5-HT6 receptor (Homo sapiens, UniProt P50406)"
  MEASURED VALUE: "61.3%"
- COMPOUND: "O=S(=O)(c1ccc(F)cc1)n1ccc2c(NC3CCNC3)nc3ccccc3c21 (centres unmarked)"
  TARGET ENTITY: "5-HT6 receptor (Homo sapiens, UniProt P50406)"
  MEASURED VALUE: "51.8%"
- COMPOUND: "O=S(=O)(c1cccc2cccnc12)n1ccc2c(NC3CCNC3)nc3ccccc3c21 (centres unmarked)"
  TARGET ENTITY: "5-HT6 receptor (Homo sapiens, UniProt P50406)"
  MEASURED VALUE: "70.2%"
- COMPOUND: "CN1CCN(c2nc3ccccc3c3c2ccn3S(=O)(=O)c2ccc(N)cc2)CC1"
  TARGET ENTITY: "5-HT6 receptor (Homo sapiens, UniProt P50406)"
  MEASURED VALUE: "97.3%"
- COMPOUND: "O=S(=O)(c1cccc(C(F)(F)F)c1)n1ccc2c(NC3CCNC3)nc3ccccc3c21 (centres unmarked)"
  TARGET ENTITY: "5-HT6 receptor (Homo sapiens, UniProt P50406)"
  MEASURED VALUE: "88.8%"

Entry "CC(C)c1ccc(S(=O)(=O)n2ccc3c(N4CCNCC4)nc4ccccc4c32)cc1" , % inhibition of control antagonist response reported as 65.3%

Attribution: patent US20170239237A1
